In this section, each of the sequences is paired with its reported folding stability dG unfold.
test: folding stability dG unfold (combined trypsin and chymotrypsin); higher = more stable
Readout Kind: folding stability dG unfold (kcal/mol)

> print(dat)
                             sequence.input                 readout.kind  result.comparator  endpoint.result
1  SAGGKKEVILVIEIDLPESEEELLEEAERLAKELAELLGKEREVEVEVIEKDGKLIIVLRINGKEIVLSAGG [r13_845_TrROS_Hall]  folding stability dG unfold                  =             2.52
2  SAMVVPVELEGPVGDLDELKEKTKKEVEEELGLPDDLENITVTVEKIEPLPDPEGKPVTTRIKLKITVKSAG [r14_736_JUSTAS]  folding stability dG unfold                  <               -1
3  SAMEVTVTPLPDGTTRVTLPDGVEITHPAPGTGEPVLVEVTEVPGTGTYRITIRSPAGGEELRELLVPVSAG [r14_975_JUSTAS]  folding stability dG unfold                  =            0.443
4  SKKIIIKITITDPKNKKKIKITEIIFDKKTKKIIIKIEVENVKNKEKLKSKEDVLEAIKKLLEKLGFKPISA [r9_258_TrROS_Hall]  folding stability dG unfold                  =             2.25
5  SAGGSAGGKIDLKDLKIVKIETVKNENGETFYRVVIEVDGKKIVLTVPENMSLEELLKKLKELSSAGGSAGG [r6_232_TrROS_Hall]  folding stability dG unfold                  =             4.07
6  SAGGRPYKVKIKNPGSGKPYEMPIVDVHESDDNFYIMIQNPNGKNREAPLNNIDKAEVDEEGGTITLPSAGG [r13_211_TrROS]  folding stability dG unfold                  <               -1
7  SMRIHDSNGQSYTIMIRTPDPNVTPEKIVKAIDEAGYKVTEIQRPPEKGHVHINIRVRDRERAIEAIKELSA [r9_1154_TrROS]  folding stability dG unfold                  =           0.0402

---

experiment: folding stability dG unfold (combined trypsin and chymotrypsin); higher = more stable
In this section, each of the sequences is paired with its reported folding stability dG unfold.
Readout Kind: folding stability dG unfold (kJ/mol)

> print(dat)
                             sequence.input                 readout.kind  endpoint.result
1  SAGGKIKKGETVKIKIEIENKNGEKKTIELEVKKEDLEKLKELIEKLKEKGFKIKKIEIKVLKKEKKSAGGS [r8_497_TrROS_Hall]  folding stability dG unfold             10.5
2  SAGGMKVTILEVKPDEVVVKTSDGKTYVFPEVIKELKEKGGGVLPTKEEIAEYLKKNNIPVDDVEFGLSAGG [r13_610_JUSTAS]  folding stability dG unfold             6.71
3  SAGGSAGGSAMPERRAAEAAAAPPPVPKVVITSPGSEEEARRIEEELRAAPGVEEVTVTVVPRLSAGGSAGG [r6_285_JUSTAS]  folding stability dG unfold            0.324
4  SAGGSAGGSAGGSPPGQEILIQIKIEFTFPIKKQTDGKPQWHPITISFTAAIPIKVDPNSAGGSAGGSAGGS [r4_271_TrROS]  folding stability dG unfold             14.7
